B1: CPEB3 Ribozyme (parent)
chain: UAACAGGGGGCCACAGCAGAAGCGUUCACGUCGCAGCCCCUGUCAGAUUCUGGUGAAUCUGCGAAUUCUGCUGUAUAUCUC

- Variants of: B1
- experiment: self-cleavage, relative activity (ratio to wild type); higher = more cleavage; in vitro, sequencing
# Lookup of reported self-cleavage keyed by entry
Answer with a number only.

Illustrative cases are given below, each with its answer.
sequence_content | self-cleavage
UAACCGGGGGCCACAGCAGAAGCGUUCACAUCGCAGCCCCUGUCAGAUUCUGGUGAAUCUGCGAAUUCUGCUGUAUAUCUC [A5C G30A] | 0.19
UAACAGGGGGCCACAGCAGAAGCGUUCACGUCGCAGCCCCUGUCAGAUUCUGGUGAAUCUGCGGAUUCUGCUGGAUAUCUC [A64G U74G] | 1.26

Moving on to another variant below.
Using the record for UAACAGGGGGCCACACCAGAAGCGUUCACGUCGCAGCCCCUGUCAGAUUCUGGUGAAUCUGCGUAUUCUGCUGUAUAUCUC [G16C A64U] , report its self-cleavage.
0.28

Data provenance is the RNAGym collection of RNA variant scans (doi:10.1093/nar/gkz1192).
